Entries and their IC50 values follow.
target: mouse VISTA (mVISTA) (Mus musculus, UniProt Q9D659); construct: expressed in transfected cells; host or cells: Human embryonic kidney 293T cells; test: Cell-Based Binding High-Content Assay For mVISTA (HC CBA mVISTA); conditions: read-out: HC CBA mVISTA IC50
Sequence (Q9D659 33-308): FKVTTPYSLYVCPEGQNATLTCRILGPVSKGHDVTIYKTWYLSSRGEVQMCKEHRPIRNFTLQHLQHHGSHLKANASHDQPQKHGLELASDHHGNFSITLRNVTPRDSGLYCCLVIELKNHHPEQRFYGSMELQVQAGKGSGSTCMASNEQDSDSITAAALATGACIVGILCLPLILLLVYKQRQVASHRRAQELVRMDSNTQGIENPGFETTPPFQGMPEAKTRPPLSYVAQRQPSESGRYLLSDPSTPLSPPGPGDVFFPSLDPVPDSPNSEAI
Positions of bridges follow the written chain, without caps; N, C: chain ends. Non-standard residues stand in square brackets, D forms with d. Residues, ends and D or L forms follow the SMILES beside them. Tic = O=C(O)[C@@H]1Cc2ccccc2CN1; Cit = NC(=O)NCCC[C@H](N)C(=O)O; Ahp(2) = CCCCC[C@H](N)C(=O)O; NMeNle = CCCC[C@H](NC)C(=O)O; NHexGly = CCCCCCNCC(=O)O; Nle = CCCC[C@H](N)C(=O)O
attributeMeasured: IC50 (nM)

INSERT INTO assay_data (molecule, assaysystem, unitabbreviation, numericreadout) VALUES
  ('CCCCCCN1CC(=O)N[C@@H](Cc2ccc(O)cc2)C(=O)N[C@@H](CCCC)C(=O)N[C@@H](CC(N)=O)C(=O)N[C@@H](CCCNC(=N)N)C(=O)N(C)[C@@H](CCCC)C(=O)N[C@@H](CCCCC)C(=O)N2CCC[C@H]2C(=O)N[C@@H](C(C)C)C(=O)N[C@@H](CC(N)=O)C(=O)N[C@H](C(=O)NCC(=O)O)CSCC(=O)N[C@@H](Cc2ccccc2)C(=O)N[C@@H](Cc2c[nH]c3ccccc23)C(=O)N[C@@H](CC(=O)O)C1=O [Example 1381] ({CH2CO}-FWD[NHexGly]Y[Nle]NR[NMeNle][Ahp(2)]PVNCG-OH; thioether N-14)', 'mouse VISTA (mVISTA) (Mus musculus, UniProt Q9D659)', 'nM', 20.3),
  ('CCCCCCN1CC(=O)N[C@@H](Cc2ccc(O)cc2)C(=O)N[C@@H](CCCC)C(=O)N[C@@H](CC(N)=O)C(=O)N[C@@H](CCCNC(N)=O)C(=O)N2Cc3ccccc3C[C@H]2C(=O)N[C@@H](CCCCC)C(=O)N2CCC[C@H]2C(=O)N[C@@H](C(C)C)C(=O)N[C@@H](CC(=O)O)C(=O)N[C@H](C(=O)NCC(N)=O)CSCC(=O)N[C@@H](Cc2ccccc2)C(=O)N[C@@H](Cc2c[nH]c3ccccc23)C(=O)N[C@@H](CC(=O)O)C1=O [Example 1412] ({CH2CO}-FWD[NHexGly]Y[Nle]N[Cit][Tic][Ahp(2)]PVDCG-NH2; thioether N-14)', 'mouse VISTA (mVISTA) (Mus musculus, UniProt Q9D659)', 'nM', 13.1);
